- System: Normal Human Epidermal Keratinocytes (NHEK)
- protocol.description: Proliferation assay vs Normal Human Epidermal Keratinocytes (NHEK growth inhibition)
- Type: cell-based
- applied.conditions: Dulbecco's modified Eagle's medium, 10% fetal calf serum, 37° C., 5% CO2, Giemsa, 650 nm, read-out: ED50 NHEK
- Experimental: In these experiments, NHEK's were cultured in Dulbecco's modified Eagle's medium with 10% fetal calf serum at 37° C., 5% CO2. Each well of a 96 well plate was seeded with 2000 cells in 200 μl of each drug dilution in duplicate. A plate was stopped and fixed for each time point, stained with Giemsa and then read in a Titertek plate reader at 650 nm, and the absorbances were calibrated with known cell numbers on control plates. NHEK's were obtained from Clonetics Corporation at the secondary stage.
Please go through the items and note down their IC50.
Numbers only, in µg/mL.

NC(=O)c1nnn(Cc2cc(Cl)c(C(=O)c3cccc4ccccc34)c(Cl)c2)c1N [Cl, Cl, CO, α-Naphth] ... 0.3
NC(=O)c1nnn(Cc2cc(Cl)c(Oc3ccc(Cl)c4ccccc34)c(Cl)c2)c1N [Cl, Cl, O, α-Naphth-4-Cl] ... 0.3
NC(=O)c1nnn(Cc2cc(Cl)c(C(=O)c3ccc(Cl)c4ccccc34)c(Cl)c2)c1N [Compound A] ... 0.08

Could you tell me IC50 for each of these compounds? They are listed below.
1. NC(=O)c1nnn(Cc2cc(Cl)c(Cc3ccc(Cl)c4ccccc34)c(Cl)c2)c1N [Cl, Cl, CH2, α-Naphth-4-Cl]
2. NC(=O)c1nnn(Cc2cc(Cl)c(C(=O)c3ccc4ccccc4c3)c(Cl)c2)c1N [Cl, Cl, CO, β-Naphth]

Given back:
1. 0.3
2. 1

Values compiled from patent US4923885A.
